The measured values listed here are drawn from the supplement of paper PMC8183993.

# key: entry, value: mean cytoplasmic OPP incorporation
system: U2OS; experiment: mean cytoplasmic OPP incorporation (global translation) relative to DMSO (% of DMSO); higher = more protein synthesis; conditions: 10 µM; 24 h
Counter-ions that a name gives are not always drawn. Whole data set: some 3,100 compounds, median “mean cytoplasmic OPP incorporation (global translation) relative to DMSO” near 100, cut for the lowest 2% near 56. Shown is part of a subset that was picked to be rich in the lowest values.
Provide a numeric answer; units are not to be included.

Worked examples, 4 molecules total:
> print(dat)
                                   molecule                       readout.label  experimental.result
1  Clc1ccc(C2=CCCC3CCC2N3)cn1 (stereo unspecified) [UB 165 fumarate]  mean cytoplasmic OPP incorporation                 97.7
2  CN(C)CCN(C)CCc1ccc(Cl)c(Cl)c1 [BD 1047 dihydrobromide]  mean cytoplasmic OPP incorporation                  105
3  CCOC(=O)c1ncn2c1CN(C)C(=O)c1cc(N=[N+]=[N-])ccc1-2  mean cytoplasmic OPP incorporation                 91.9
4  NCC(CS(=O)(=O)O)c1ccc(Cl)cc1 (stereo unspecified) [Saclofen]  mean cytoplasmic OPP incorporation                  104

Query: Fill in reported mean cytoplasmic OPP incorporation for this entry: CC(N)Cc1cnc[nH]1 (stereo unspecified)
Result: 101

Query: Fill in reported mean cytoplasmic OPP incorporation for this entry: CCOc1cncc(/C=C/CCNC)c1 [TC 2559 difumarate]
Result: 97.5

----------
system: U2OS; test: mean cytoplasmic OPP incorporation (global translation) relative to DMSO (% of DMSO); higher = more protein synthesis; details: 10 µM; 24 h
In all, about 3,100 compounds were measured (“mean cytoplasmic OPP incorporation (global translation) relative to DMSO”: median about 100, lowest 2% from about 56 on). Shown is part of a subset that was picked to be rich in the lowest values.
# key: entry, value: mean cytoplasmic OPP incorporation
Provide a numeric answer; units are not to be included.

Worked examples, 3 compounds total:
> print(dat)
                                   compound  study.target  experimental.result
1  C[C@]12CC[C@@H](O)C[C@@H]1CC[C@@H]1[C@@H]2CC[C@]2(C)C(=O)CC[C@@H]12          U2OS                 97.1
2           CCCOc1ccc2[nH]cc(C3=CCNCC3)c2n1          U2OS                  103
3  Fc1ccc(C(OCCN2CCN(C/C=C/c3ccccc3)CC2)c2ccc(F)cc2)cc1          U2OS                  102

Would you kindly look at the next entry?
Query: // output mean cytoplasmic OPP incorporation; input O=C1CSC(c2ccccc2Cl)c2cc(Cl)ccc2N1 (centres undefined) ; system U2OS
Result: 101
